Parameter: pIC50. Scope: all listed entries.
assayTarget: Cholinesterase (Equus caballus, UniProt P81908)
Sequence (P81908 whole entry): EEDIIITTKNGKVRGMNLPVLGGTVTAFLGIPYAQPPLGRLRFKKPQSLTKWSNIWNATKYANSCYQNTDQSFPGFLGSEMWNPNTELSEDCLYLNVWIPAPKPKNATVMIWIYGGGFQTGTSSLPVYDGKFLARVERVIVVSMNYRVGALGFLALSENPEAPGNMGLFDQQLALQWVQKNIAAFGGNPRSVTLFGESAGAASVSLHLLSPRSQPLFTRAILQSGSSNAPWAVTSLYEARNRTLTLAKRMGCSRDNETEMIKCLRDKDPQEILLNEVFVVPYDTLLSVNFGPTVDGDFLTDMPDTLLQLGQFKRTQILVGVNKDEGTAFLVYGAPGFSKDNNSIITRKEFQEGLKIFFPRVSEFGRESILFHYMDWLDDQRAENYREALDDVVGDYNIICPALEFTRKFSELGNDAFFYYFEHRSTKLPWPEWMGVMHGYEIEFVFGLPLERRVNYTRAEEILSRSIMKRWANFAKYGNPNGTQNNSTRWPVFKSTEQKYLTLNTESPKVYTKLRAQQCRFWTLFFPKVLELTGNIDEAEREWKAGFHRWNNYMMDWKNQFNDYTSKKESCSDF
measurementProtocol: Inhibition of equine serum BChE by Ellman's method
Notebook: values listed as pIC50 are -log10 of the concentration (mol/L).

molecule	assayTarget	recordedResult
CCNC(=O)Oc1ccc2c(c1)CN1CCc3c([nH]c4ccccc34)C1N2C (stereo unspecified)	Cholinesterase (Equus caballus, UniProt P81908)	5.99
CN1c2ccc(OC(=O)NCc3ccccc3)cc2CN2CCc3c([nH]c4ccccc34)C21 (stereo unspecified)	Cholinesterase (Equus caballus, UniProt P81908)	5.67
CN1c2ccccc2CN2CCc3c([nH]c4ccccc34)C21 (stereo unspecified)	Cholinesterase (Equus caballus, UniProt P81908)	5.57

get_value(item= CN1c2ccc(O)cc2CN2CCc3c([nH]c4ccccc34)C21 (stereo unspecified) , readout=pIC50) returns 4.71

Looking up CCCCNC(=O)Oc1ccc2c(c1)CN1CCc3c([nH]c4ccccc34)C1N2C (stereo unspecified) , I found its pIC50 recorded as 5.40

Recorded pIC50 (molecule CCCCCCCNC(=O)Oc1ccc2c(c1)CN1CCc3c([nH]c4ccccc34)C1N2C (stereo unspecified) ): 7.11

Recorded result, CN1c2ccc(OCc3ccccc3)cc2C(=O)N2CCc3c([nH]c4ccccc34)C21 (stereo unspecified) , pIC50: 6.06

For this molecule ( CN1c2ccccc2C(=O)N2CCc3c([nH]c4ccccc34)C21 (stereo unspecified) ), measured pIC50 is 5.34

###

assayTarget: Cholinesterase (Equus caballus) (UniProt P81908)
Sequence (P81908 whole entry): as the sequence (P81908 whole entry) above
measurementProtocol: Inhibition of equine serum BChE at 10 uM by Ellman's method
measurementKind: inhibition
Entry format: amount then unit.

Below are worked cases with known answers.
compound	measurementKind	recordedResult
COc1cccc(NC(=O)Oc2ccc3c(c2)C(=O)N2CCc4c([nH]c5ccccc45)C2N3C)c1 (stereo unspecified)	inhibition	3%
COc1cccc(NC(=O)Oc2ccc3c(c2)CN2CCc4c([nH]c5ccccc45)C2N3C)c1 (stereo unspecified)	inhibition	30%
CNC(=O)Oc1ccc2c(c1)[C@]1(C)CCN(C)[C@@H]1N2C	inhibition	7.22%
CCCCNC(=O)Oc1ccc2c(c1)C(=O)N1CCc3c([nH]c4ccccc34)C1N2C (stereo unspecified)	inhibition	12%
CN1c2ccc(OC(=O)NCc3ccccc3)cc2C(=O)N2CCc3c([nH]c4ccccc34)C21 (stereo unspecified)	inhibition	15%

Kindly review the next compound as well.
Value of measured inhibition for the entry CN1c2ccccc2CN2CCc3c([nH]c4ccccc34)C21 (stereo unspecified) : 5.57%

###

The following compounds are listed with their measured Ratio IC50 values.
measurementProtocol: Selectivity ratio of IC50 for Electrophorus electricus acetylcholinesterase to IC50 for equine serum butyrylcholinesterase

Known results for compounds:
compound	recordedResult
CCCCCCCNC(=O)Oc1ccc2c(c1)CN1CCc3c([nH]c4ccccc34)C1N2C (stereo not drawn)	> 130
CCCCNC(=O)Oc1ccc2c(c1)CN1CCc3c([nH]c4ccccc34)C1N2C (stereo not drawn)	> 2.52
CN1c2ccc(OC(=O)NCc3ccccc3)cc2CN2CCc3c([nH]c4ccccc34)C21 (stereo not drawn)	> 4.65

Looking up CN1c2ccccc2C(=O)N2CCc3c([nH]c4ccccc34)C21 (stereo not drawn) , I see its Ratio IC50 listed as > 2.16

CN1c2ccc(OCc3ccccc3)cc2C(=O)N2CCc3c([nH]c4ccccc34)C21 (stereo not drawn) yielded Ratio IC50 of 3.42

Given item CN1c2ccc(O)cc2CN2CCc3c([nH]c4ccccc34)C21 (stereo not drawn) , the value recorded as its Ratio IC50 is > 5.17

Briefly, Ratio IC50 measured for CCNC(=O)Oc1ccc2c(c1)CN1CCc3c([nH]c4ccccc34)C1N2C (stereo not drawn) : > 9.71

The compound CN1c2ccccc2CN2CCc3c([nH]c4ccccc34)C21 (stereo not drawn) showed Ratio IC50 equal to > 3.73

###

assayTarget: Cholinesterase (Equus caballus) (UniProt P81908)
measurementProtocol: Inhibition of equine serum BChE at 10 uM by Ellman's method
measurementKind: inhibition
Write the quantity with the unit trailing the number.

The examples below pair each entry with its known result.
compound	recordedResult
CCCCCCCNC(=O)Oc1ccc2c(c1)CN1CCc3c([nH]c4ccccc34)C1N2C (stereo not given)	7.11%
CN1c2ccc(O)cc2CN2CCc3c([nH]c4ccccc34)C21 (stereo not given)	4.71%
CN1c2ccc(OC(=O)NCc3ccccc3)cc2CN2CCc3c([nH]c4ccccc34)C21 (stereo not given)	5.67%
CCCCNC(=O)Oc1ccc2c(c1)CN1CCc3c([nH]c4ccccc34)C1N2C (stereo not given)	5.4%
CCNC(=O)Oc1ccc2c(c1)CN1CCc3c([nH]c4ccccc34)C1N2C (stereo not given)	5.99%
CN1c2ccc(OCc3ccccc3)cc2C(=O)N2CCc3c([nH]c4ccccc34)C21 (stereo not given)	6.07%
CC(C)c1ccc(NC(=O)Oc2ccc3c(c2)C(=O)N2CCc4c([nH]c5ccccc45)C2N3C)cc1 (stereo not given)	7%
CN1c2ccccc2C(=O)N2CCc3c([nH]c4ccccc34)C21 (stereo not given)	5.34%

inhibition recorded for this compound, CC(C)c1ccc(NC(=O)Oc2ccc3c(c2)CN2CCc4c([nH]c5ccccc45)C2N3C)cc1 (stereo not given) , is 41%

Please fill in: inhibition reported for CCNC(=O)Oc1ccc2c(c1)C(=O)N1CCc3c([nH]c4ccccc34)C1N2C (stereo not given) = 21%

###

Listing of recorded inhibition by entry.
assayTarget: Acetylcholinesterase (Electrophorus electricus) (UniProt O42275)
Sequence (O42275 24-633 limits assumed): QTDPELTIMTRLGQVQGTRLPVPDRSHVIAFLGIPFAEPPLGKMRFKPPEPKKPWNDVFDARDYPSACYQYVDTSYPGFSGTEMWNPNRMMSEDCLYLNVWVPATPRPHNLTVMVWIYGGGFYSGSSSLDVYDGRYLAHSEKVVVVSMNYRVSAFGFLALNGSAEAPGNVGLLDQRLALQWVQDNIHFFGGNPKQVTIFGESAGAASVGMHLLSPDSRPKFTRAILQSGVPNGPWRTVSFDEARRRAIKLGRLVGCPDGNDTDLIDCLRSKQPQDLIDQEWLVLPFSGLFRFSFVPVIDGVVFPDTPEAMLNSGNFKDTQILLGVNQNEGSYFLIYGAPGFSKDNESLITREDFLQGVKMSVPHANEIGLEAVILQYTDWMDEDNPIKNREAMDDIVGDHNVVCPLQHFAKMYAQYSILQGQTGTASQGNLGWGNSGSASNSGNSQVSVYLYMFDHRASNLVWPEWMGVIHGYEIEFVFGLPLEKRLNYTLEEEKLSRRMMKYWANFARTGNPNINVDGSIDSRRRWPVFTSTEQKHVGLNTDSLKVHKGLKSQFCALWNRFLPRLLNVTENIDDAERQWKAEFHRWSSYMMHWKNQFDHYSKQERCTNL
measurementProtocol: Inhibition of electric eel AChE at 10 uM by Ellman's method
Numeric only. Scale: %

molecule	unitString	inhibition
COc1cccc(NC(=O)Oc2ccc3c(c2)CN2CCc4c([nH]c5ccccc45)C2N3C)c1 (stereo unspecified)	%	19
CNC(=O)Oc1ccc2c(c1)[C@]1(C)CCN(C)[C@@H]1N2C	%	8.11
CCNC(=O)Oc1ccc2c(c1)CN1CCc3c([nH]c4ccccc34)C1N2C (stereo unspecified)	%	26
CCNC(=O)Oc1ccc2c(c1)C(=O)N1CCc3c([nH]c4ccccc34)C1N2C (stereo unspecified)	%	15

Entry CC(C)c1ccc(NC(=O)Oc2ccc3c(c2)C(=O)N2CCc4c([nH]c5ccccc45)C2N3C)cc1 (stereo unspecified) — recorded inhibition = 14

The value of inhibition measured for the molecule CCCCCCCNC(=O)Oc1ccc2c(c1)CN1CCc3c([nH]c4ccccc34)C1N2C (stereo unspecified) turned out to be 17

inhibition reading for CN1c2ccc(OCc3ccccc3)cc2C(=O)N2CCc3c([nH]c4ccccc34)C21 (stereo unspecified) : 5.52

Field inhibition (entry CN1c2ccccc2CN2CCc3c([nH]c4ccccc34)C21 (stereo unspecified) ) reads 24

Documented inhibition of CN1c2ccc(OC(=O)NCc3ccccc3)cc2CN2CCc3c([nH]c4ccccc34)C21 (stereo unspecified) : 34

###

assayTarget: Acetylcholinesterase (Electrophorus electricus)
measurementProtocol: Inhibition of electric eel AChE at 10 uM by Ellman's method
Measured inhibition accompanies every entry in the list below.
Give just the numeric value; % need not be written.

Some entries whose results are on file:
compound	unitString	recordedResult
CCCCNC(=O)Oc1ccc2c(c1)CN1CCc3c([nH]c4ccccc34)C1N2C (configuration not stated)	%	47
CN1c2ccccc2C(=O)N2CCc3c([nH]c4ccccc34)C21 (configuration not stated)	%	37
CN1c2ccc(O)cc2C(=O)N2CCc3c([nH]c4ccccc34)C21 (configuration not stated)	%	29
COc1cccc(NC(=O)Oc2ccc3c(c2)C(=O)N2CCc4c([nH]c5ccccc45)C2N3C)c1 (configuration not stated)	%	15
CCCCNC(=O)Oc1ccc2c(c1)C(=O)N1CCc3c([nH]c4ccccc34)C1N2C (configuration not stated)	%	10
CC(C)c1ccc(NC(=O)Oc2ccc3c(c2)CN2CCc4c([nH]c5ccccc45)C2N3C)cc1 (configuration not stated)	%	13

# lookup: CN1c2ccc(OC(=O)NCc3ccccc3)cc2C(=O)N2CCc3c([nH]c4ccccc34)C21 (configuration not stated) on Acetylcholinesterase (Electrophorus electricus), inhibition = 10
